Biological target: Acetylcholinesterase (Electrophorus electricus)
Sequence (O42275 whole entry): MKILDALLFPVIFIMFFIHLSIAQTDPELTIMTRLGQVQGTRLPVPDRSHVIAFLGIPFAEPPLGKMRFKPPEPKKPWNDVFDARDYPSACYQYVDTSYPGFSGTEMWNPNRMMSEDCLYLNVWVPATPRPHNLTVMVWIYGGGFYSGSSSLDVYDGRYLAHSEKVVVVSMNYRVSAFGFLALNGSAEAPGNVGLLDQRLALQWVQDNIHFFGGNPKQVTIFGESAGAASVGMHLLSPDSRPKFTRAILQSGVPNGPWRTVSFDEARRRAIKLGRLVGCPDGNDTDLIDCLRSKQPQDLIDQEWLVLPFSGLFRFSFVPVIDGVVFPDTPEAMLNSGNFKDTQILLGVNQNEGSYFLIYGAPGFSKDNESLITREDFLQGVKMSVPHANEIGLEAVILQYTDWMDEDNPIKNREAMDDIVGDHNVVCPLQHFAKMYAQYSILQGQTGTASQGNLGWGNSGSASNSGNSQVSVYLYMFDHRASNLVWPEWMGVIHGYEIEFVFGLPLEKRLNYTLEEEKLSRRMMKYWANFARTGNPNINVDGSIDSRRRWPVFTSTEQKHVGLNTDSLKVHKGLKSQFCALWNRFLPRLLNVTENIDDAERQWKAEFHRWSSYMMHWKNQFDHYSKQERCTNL
Please assign -1 whenever IC50 is at or above 3 µM, and 1 whenever it is below.

Please determine if CCN(CC)C(=O)Oc1ccc2[nH]ccc2c1 is below 3 µM in terms of IC50.
1

Please determine if C#CCn1ccc2ccc(NC(=O)N(CC)CC)cc21 is below 3 µM in terms of IC50.
-1

Please determine if C#CCn1ccc2cc(OC(=O)N(CC)CC)ccc21 is below 3 µM in terms of IC50.
1

Please determine if CCN(CC)C(=O)Nc1ccc2cc[nH]c2c1 is below 3 µM in terms of IC50.
1

Please determine if C#CCN[C@@H]1CCc2ccc(OC(=O)N(C)CC)cc21 is below 3 µM in terms of IC50.
-1

Please determine if C#CCn1ccc2ccc(OC(=O)N(CC)CC)cc21 is below 3 µM in terms of IC50.
1

Please determine if CCN(CC)C(=O)Oc1ccc2cc[nH]c2c1 is below 3 µM in terms of IC50.
-1

Please determine if C#CCn1ccc2cc(NC(=O)N(CC)CC)ccc21 is below 3 µM in terms of IC50.
1

Please determine if CCN(CC)C(=O)Nc1ccc2[nH]ccc2c1 is below 3 µM in terms of IC50.
1

* * *

Molecular target: Cholinesterase (Equus caballus)
Sequence (P81908 whole entry): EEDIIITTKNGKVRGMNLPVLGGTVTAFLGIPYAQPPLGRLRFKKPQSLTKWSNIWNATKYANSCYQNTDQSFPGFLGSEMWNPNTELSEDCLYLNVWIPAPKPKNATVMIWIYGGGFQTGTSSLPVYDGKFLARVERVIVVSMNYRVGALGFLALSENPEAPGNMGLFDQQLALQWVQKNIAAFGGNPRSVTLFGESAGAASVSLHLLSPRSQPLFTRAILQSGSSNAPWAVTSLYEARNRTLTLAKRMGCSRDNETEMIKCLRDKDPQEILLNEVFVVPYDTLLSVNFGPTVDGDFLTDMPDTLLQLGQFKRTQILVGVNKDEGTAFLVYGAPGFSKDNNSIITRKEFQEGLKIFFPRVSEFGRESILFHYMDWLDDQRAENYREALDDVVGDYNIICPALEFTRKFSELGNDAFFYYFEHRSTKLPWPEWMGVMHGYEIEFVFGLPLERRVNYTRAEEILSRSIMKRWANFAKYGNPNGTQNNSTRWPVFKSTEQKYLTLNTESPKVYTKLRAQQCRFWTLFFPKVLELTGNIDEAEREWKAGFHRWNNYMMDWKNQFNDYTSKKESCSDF
Assay: Inhibition of equine serum BuChE using S-butyrylthiocholine iodide as substrate pretreated for 10 mins followed by substrate addition and measured after 10 mins by Ellman's method
Record form. Attribute: pIC50. Fill in for each entry.
Quick note: pIC50 means taking -log10 of the concentration in moles per liter.

GET /values?readout=pIC50&item= CCN(CC)C(=O)Oc1ccc2cc[nH]c2c1
5.50

GET /values?readout=pIC50&item= C#CCn1ccc2cc(OC(=O)N(CC)CC)ccc21
5.52

GET /values?readout=pIC50&item= C#CCn1ccc2ccc(OC(=O)N(CC)CC)cc21
5.30

GET /values?readout=pIC50&item= CCN(CC)C(=O)Oc1ccc2[nH]ccc2c1
5.64

GET /values?readout=pIC50&item= C#CCn1ccc2ccc(NC(=O)N(CC)CC)cc21
5.55

GET /values?readout=pIC50&item= C#CCn1ccc2cc(NC(=O)N(CC)CC)ccc21
5.40

GET /values?readout=pIC50&item= C#CCN[C@@H]1CCc2ccc(OC(=O)N(C)CC)cc21 [LADOSTIGIL]
5.70

GET /values?readout=pIC50&item= CCN(CC)C(=O)Nc1ccc2[nH]ccc2c1
5.46

GET /values?readout=pIC50&item= CCN(CC)C(=O)Nc1ccc2cc[nH]c2c1
5.34

* * *

Species on record: Homo sapiens
Experiment: Selectivity index, ratio of IC50 for human recombinant MAOA to IC50 for human recombinant MAOB
Record form. Attribute: Ratio IC50. Fill in for each entry.
Output: the number by itself.

GET /values?readout=Ratio IC50&item= C#CCn1ccc2ccc(OC(=O)N(CC)CC)cc21
28.1

GET /values?readout=Ratio IC50&item= C#CCn1ccc2cc(OC(=O)N(CC)CC)ccc21
6

GET /values?readout=Ratio IC50&item= C#CCn1ccc2cc(NC(=O)N(CC)CC)ccc21
1.16

GET /values?readout=Ratio IC50&item= C#CCn1ccc2ccc(NC(=O)N(CC)CC)cc21
1.65

* * *

Experiment: Cytotoxicity against human SH-SY5Y cells assessed as reduction in cell viability after 48 hrs by MTT assay
Assay type: cell-based
Conditions: SH-SY5Y cells
Record form. Attribute: CC50 at 48 h. Fill in for each entry.

GET /values?readout=CC50 at 48 h&item= C#CCn1ccc2ccc(NC(=O)N(CC)CC)cc21
> 100 µM

GET /values?readout=CC50 at 48 h&item= CCN(CC)C(=O)Nc1ccc2cc[nH]c2c1
> 100 µM

* * *

Organism: Homo sapiens
Assay: Selectivity index, ratio of IC50 for human recombinant MAOA to IC50 for human recombinant MAOB
Record form. Attribute: Ratio IC50. Fill in for each entry.

GET /values?readout=Ratio IC50&item= CCN(CC)C(=O)Oc1ccc2cc[nH]c2c1
< 0.88

GET /values?readout=Ratio IC50&item= CCN(CC)C(=O)Oc1ccc2[nH]ccc2c1
< 0.13

GET /values?readout=Ratio IC50&item= CCN(CC)C(=O)Nc1ccc2cc[nH]c2c1
< 0.2

GET /values?readout=Ratio IC50&item= C#CCN[C@@H]1CCc2ccc(OC(=O)N(C)CC)cc21
> 2.69

Where these numbers come from: ChEMBL document CHEMBL4257479
